- assay system: Integrin alpha-IIb/beta-3 (Homo sapiens, UniProt P05106+P08514)
- Sequence (P05106 27-788 limits assumed): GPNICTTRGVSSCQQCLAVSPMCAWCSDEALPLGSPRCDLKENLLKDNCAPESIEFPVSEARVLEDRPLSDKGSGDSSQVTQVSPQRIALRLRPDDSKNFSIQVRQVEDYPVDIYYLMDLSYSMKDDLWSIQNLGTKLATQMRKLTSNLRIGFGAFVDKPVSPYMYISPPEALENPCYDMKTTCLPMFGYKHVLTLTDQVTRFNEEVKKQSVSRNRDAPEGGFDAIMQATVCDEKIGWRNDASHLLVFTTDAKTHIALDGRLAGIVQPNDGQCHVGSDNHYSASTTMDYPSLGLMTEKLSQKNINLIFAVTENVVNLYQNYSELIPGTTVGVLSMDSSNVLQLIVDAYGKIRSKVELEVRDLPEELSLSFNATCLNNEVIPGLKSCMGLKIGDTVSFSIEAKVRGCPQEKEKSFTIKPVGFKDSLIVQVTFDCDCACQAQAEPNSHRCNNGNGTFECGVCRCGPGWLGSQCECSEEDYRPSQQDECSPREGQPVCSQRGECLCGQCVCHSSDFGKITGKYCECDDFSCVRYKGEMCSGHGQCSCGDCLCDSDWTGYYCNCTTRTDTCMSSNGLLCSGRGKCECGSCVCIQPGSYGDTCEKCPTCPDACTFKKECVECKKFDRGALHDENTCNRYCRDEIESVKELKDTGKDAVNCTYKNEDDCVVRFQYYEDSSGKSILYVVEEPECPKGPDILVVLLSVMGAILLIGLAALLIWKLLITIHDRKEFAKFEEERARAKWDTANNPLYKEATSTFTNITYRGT
- Sequence (P08514 32-887 limits assumed): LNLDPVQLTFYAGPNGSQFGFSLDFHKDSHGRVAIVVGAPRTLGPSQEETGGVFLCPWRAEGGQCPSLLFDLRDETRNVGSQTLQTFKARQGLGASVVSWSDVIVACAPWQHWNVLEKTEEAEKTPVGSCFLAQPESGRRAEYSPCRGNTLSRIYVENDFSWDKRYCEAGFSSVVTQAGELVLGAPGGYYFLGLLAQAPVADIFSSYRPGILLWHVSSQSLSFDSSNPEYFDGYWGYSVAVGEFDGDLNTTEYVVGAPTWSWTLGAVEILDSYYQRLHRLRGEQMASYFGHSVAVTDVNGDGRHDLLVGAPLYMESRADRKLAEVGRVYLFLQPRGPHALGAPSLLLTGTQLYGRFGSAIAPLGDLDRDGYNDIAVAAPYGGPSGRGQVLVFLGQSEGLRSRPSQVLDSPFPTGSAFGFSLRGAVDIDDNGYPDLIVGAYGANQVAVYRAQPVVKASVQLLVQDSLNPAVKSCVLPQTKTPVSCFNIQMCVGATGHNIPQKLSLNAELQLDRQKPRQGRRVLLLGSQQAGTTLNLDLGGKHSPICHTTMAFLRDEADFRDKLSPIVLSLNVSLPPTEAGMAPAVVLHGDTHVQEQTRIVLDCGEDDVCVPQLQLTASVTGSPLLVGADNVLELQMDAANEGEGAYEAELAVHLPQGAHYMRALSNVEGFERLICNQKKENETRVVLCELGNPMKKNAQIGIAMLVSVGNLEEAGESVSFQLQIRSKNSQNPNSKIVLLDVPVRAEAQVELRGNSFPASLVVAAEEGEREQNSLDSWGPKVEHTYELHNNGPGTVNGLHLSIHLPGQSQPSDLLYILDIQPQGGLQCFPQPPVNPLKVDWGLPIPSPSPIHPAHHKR
- Sequence (P08514 891-1039 limits assumed): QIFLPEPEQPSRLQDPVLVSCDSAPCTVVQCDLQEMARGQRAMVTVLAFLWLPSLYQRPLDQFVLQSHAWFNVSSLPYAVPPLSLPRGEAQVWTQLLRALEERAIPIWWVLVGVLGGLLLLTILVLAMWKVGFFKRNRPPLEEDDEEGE
- measurement protocol: Displacement of biotinylated fibrinogen from human alpha2b-beta3 receptor after 2 hrs by chemiluminescence assay
property name: IC50

>  <compound>
CCOC(=O)CN(Cc1cccc(F)c1)c1ccc2c(c1)OC(C)(COc1ccc(C(=N)N)cc1)CN2C (centres undefined)

>  <assay system>
Integrin alpha-IIb/beta-3 (Homo sapiens, UniProt P05106+P08514)

>  <property name>
IC50

>  <measured value>
> 100 µM

$$$$
>  <compound>
CCOC(=O)C(=O)N(Cc1cc(F)cc(F)c1)c1ccc2c(c1)OC(C)(COc1ccc(C(=N)N)cc1)CN2C (centres undefined)

>  <assay system>
Integrin alpha-IIb/beta-3 (Homo sapiens, UniProt P05106+P08514)

>  <property name>
IC50

>  <measured value>
> 100 µM

$$$$
>  <compound>
CCOC(=O)CN(Cc1ccc(F)c(F)c1)c1ccc2c(c1)N(C)CC(C)(COc1ccc(C(=N)N)cc1)O2 (centres undefined)

>  <assay system>
Integrin alpha-IIb/beta-3 (Homo sapiens, UniProt P05106+P08514)

>  <property name>
IC50

>  <measured value>
> 100 µM

$$$$
>  <compound>
CCOC(=O)C(=O)N(Cc1ccc(F)cc1)c1ccc2c(c1)OC(C)(COc1ccc(C(=N)N)cc1)CN2C (centres undefined)

>  <assay system>
Integrin alpha-IIb/beta-3 (Homo sapiens, UniProt P05106+P08514)

>  <property name>
IC50

>  <measured value>
> 100 µM

$$$$
>  <compound>
CCOC(=O)CN(Cc1cccc(F)c1)c1ccc2c(c1)N(C)CC(C)(COc1ccc(C(=N)N)cc1)O2 (centres undefined)

>  <assay system>
Integrin alpha-IIb/beta-3 (Homo sapiens, UniProt P05106+P08514)

>  <property name>
IC50

>  <measured value>
> 100 µM

$$$$
>  <compound>
CCOC(=O)C(=O)N(Cc1ccc(F)c(F)c1)c1ccc2c(c1)N(C)CC(C)(COc1ccc(C(=N)N)cc1)O2 (centres undefined)

>  <assay system>
Integrin alpha-IIb/beta-3 (Homo sapiens, UniProt P05106+P08514)

>  <property name>
IC50

>  <measured value>
> 100 µM

$$$$
>  <compound>
CN1CC(C)(COc2ccc(C(=N)N)cc2)Oc2ccc(N(CC(=O)O)Cc3cccc(F)c3)cc21 (centres undefined)

>  <assay system>
Integrin alpha-IIb/beta-3 (Homo sapiens, UniProt P05106+P08514)

>  <property name>
IC50

>  <measured value>
1.5 µM

$$$$
>  <compound>
CN1CC(C)(COc2ccc(C(=N)N)cc2)Oc2cc(N(CC(=O)O)Cc3cccc(F)c3)ccc21 (centres undefined)

>  <assay system>
Integrin alpha-IIb/beta-3 (Homo sapiens, UniProt P05106+P08514)

>  <property name>
IC50

>  <measured value>
60 µM

$$$$

response.value for CN1CC(C)(COc2ccc(C(=N)N)cc2)Oc2cc(N(Cc3ccccc3)C(=O)C(=O)O)ccc21 (centres undefined) (field: IC50) = 39 µM

---

# key: entry, value: pIC50
- assay system: Integrin alpha-IIb/beta-3 (Homo sapiens, UniProt P05106+P08514)
- measurement protocol: Displacement of biotinylated fibrinogen from human alpha2b-beta3 receptor after 2 hrs by chemiluminescence assay
A value of pIC50 is the negative decimal logarithm of a concentration given in moles per litre.

>  <compound>
CN1CC(C)(COc2ccc(C(=N)N)cc2)Oc2ccc(N(CC(=O)O)Cc3ccc(F)cc3)cc21 (configuration not stated)

>  <measured value>
5.70

$$$$
>  <compound>
CCOC(=O)CN(Cc1ccccc1)c1ccc2c(c1)OC(C)(COc1ccc(C(=N)N)cc1)CN2C (configuration not stated)

>  <measured value>
4.55

$$$$

// next entry
response.value for CN1CC(C)(COc2ccc(C(=N)N)cc2)Oc2cc(N(CC(=O)O)Cc3ccc(F)cc3)ccc21 (configuration not stated) (field: pIC50) = 4.31

---

- assay system: Integrin alpha-IIb/beta-3 (Homo sapiens, UniProt P05106+P08514)
- measurement protocol: Displacement of biotinylated fibrinogen from human alpha2b-beta3 receptor after 2 hrs by chemiluminescence assay
property name: IC50

>  <compound>
CCOC(=O)CN(Cc1cc(F)cc(F)c1)c1ccc2c(c1)N(C)CC(C)(COc1ccc(C(=N)N)cc1)O2 (centres undefined)

>  <measured value>
> 100 µM

$$$$
>  <compound>
CCOC(=O)C(=O)N(Cc1ccc(F)c(F)c1)c1ccc2c(c1)OC(C)(COc1ccc(C(=N)N)cc1)CN2C (centres undefined)

>  <measured value>
> 100 µM

$$$$

response.value for CCOC(=O)C(=O)N(Cc1cc(F)cc(F)c1)c1ccc2c(c1)N(C)CC(C)(COc1ccc(C(=N)N)cc1)O2 (centres undefined) (field: IC50) = > 100 µM

response.value for CCOC(=O)C(=O)N(Cc1ccc(F)cc1)c1ccc2c(c1)N(C)CC(C)(COc1ccc(C(=N)N)cc1)O2 (centres undefined) (field: IC50) = > 10 µM
